Residues, ends and D or L forms follow the SMILES beside them.
assay.readout: melting point

Any idea what melting point was measured for Cc1ccsc1C(Cc1ccccc1NCN1C(=O)CCC1=O)N(C)C=O (stereo unspecified) ? 160 to 164 °C

Any idea what melting point was measured for C/C(=C\c1ccc(C=O)cc1)c1ccc2c(c1)C(C)(C)CCC2(C)C ? 140 to 141 °C

Any idea what melting point was measured for O=C(O)CC(C(=O)O)C(CSc1nc2ccccc2s1)C(=O)O (stereo unspecified) ? 188 to 190 °C

Any idea what melting point was measured for OC(CNCCN(c1ccccc1)c1ccccc1)COc1ccccc1 (stereo unspecified) ? 95 to 96 °C

Any idea what melting point was measured for OCC1OC(n2cnc3c(SCc4ccc5nc[nH]c5c4)ncnc32)C(O)C1O (stereo unspecified) ? 196 to 198 °C

Any idea what melting point was measured for COc1ccc(Cl)cc1C(=O)NCCOc1ccc(CC2SC(=O)NC2=O)cc1 (stereo unspecified) ? 66 to 67 °C

Any idea what melting point was measured for CSc1nnc(-c2ccc(Cl)nc2)s1 ? 136 °C

Any idea what melting point was measured for C[C@H](N)C(=O)N1CCC[C@H]1C(=O)O (H-Ala-Pro-OH) ? 106 to 132 °C

Any idea what melting point was measured for CC(=O)c1ccc(N(C2CC2)S(=O)(=O)c2cccc(C(=O)Nc3ccc(C#N)cc3)c2)cc1 ? 185 to 186 °C

Any idea what melting point was measured for O=C(C(=O)c1cccc(C#Cc2ccccc2)c1)c1cccc(C#Cc2ccccc2)c1 ? 144 to 145 °C

Any idea what melting point was measured for CC1Nc2cc(Br)ccc2NC1=O (stereo unspecified) ? 133 to 135 °C

Any idea what melting point was measured for CN1CCC(OC(c2cccc(SCCNc3c(N)c(=O)c3=O)c2)c2nc3ccccc3[nH]2)CC1 (stereo unspecified) ? 161 °C

Any idea what melting point was measured for O=c1oc2cc(O)c(O)c([N+](=O)[O-])c2c2c1CCCC2 ? 238 to 255 °C

Any idea what melting point was measured for Oc1ccc(Sc2cccc(F)n2)cc1 ? 123 to 124 °C

Any idea what melting point was measured for Cc1cc(Cl)ccc1N=C1NCCN1 ? 137 to 138 °C

Any idea what melting point was measured for COc1cc(OC)cc(-c2ncoc2-c2ccc(OC(F)(F)F)c(O)c2)c1 ? 192 to 194 °C

Any idea what melting point was measured for CCOC(=O)C1(Br)Oc2cc(OC(C)=O)ccc2OC1Br (stereo unspecified) ? 131 °C

Any idea what melting point was measured for C=CCNc1nc(NCCCCCCCCC)c2scc(C)c2n1 ? 65 to 66 °C

Any idea what melting point was measured for OC1c2cc(OCc3ccccn3)ccc2OCC1Cc1cccnc1 (stereo unspecified) ? 108 to 110 °C

Any idea what melting point was measured for CS(=O)(=O)c1ccc(-c2c(OCC(=O)c3ccc(F)cc3)nn(CC(=O)c3ccc(F)cc3)c2-c2ccc(F)cc2)cc1 ? 191 to 193 °C

Any idea what melting point was measured for CSc1cc2ccccc2cc1C=Cc1cc2ccccc2cc1SC ? 195 to 196 °C

====

Please respond with reported melting point for every item in the list.

Any idea what melting point was measured for O=C(O)Cc1ccc2[nH]cc(CCNC(=O)OCc3ccccc3)c2c1 ? 116 to 117 °C

Any idea what melting point was measured for CN(C)C(=S)SCC(c1cccc2ccccc12)[N+](=O)[O-] (stereo not given) ? 136 to 138 °C

Any idea what melting point was measured for CNC(=S)N1CCSC1c1ccccc1OCCN1CCC(c2ccccc2)CC1 (stereo not given) ? 141 to 142 °C

Any idea what melting point was measured for COc1cccc2c1C(O)CC21CCN(CCCC(=O)c2ccc(F)cc2)C1 (stereo not given) ? 152 to 154 °C

Any idea what melting point was measured for COc1ccc(-c2nc3c(O)cccc3s2)cc1 ? 128 to 130 °C

Any idea what melting point was measured for O=C1C2CC3CCC(C2)N3C1C(c1ccccc1)c1ccccc1 (stereo not given) ? 137 to 138 °C

Any idea what melting point was measured for COc1cccc(Cc2nc3n(-c4c(Cl)cc(Cl)cc4Cl)[nH]c(SC)c-3c(=O)n2)c1 ? 245 to 248 °C

Any idea what melting point was measured for CC(C)C(=O)CNC(=O)c1ccc(Cl)cc1 ? 118 to 119 °C

Any idea what melting point was measured for Cn1nc(-c2ccccc2)c(OC(C)(C)C)c1-c1ccccc1 ? 106 to 108 °C

Any idea what melting point was measured for COC(=O)c1cccc(Oc2cccc(-c3nn(C)c(=Nc4ccc(Cl)c(Cl)c4)s3)c2)c1 ? 193 to 196 °C

====

assay.readout: melting point

Any idea what melting point was measured for NC(=O)CN1C(=O)CC2Cc3c(Cl)cccc3C21 (stereo not given) ? 186 to 188 °C

Any idea what melting point was measured for C/C(=N\OCCN1CCOCC1)[C@H]1CC[C@H]2[C@@H]3CC=C4C[C@@H](O)CC[C@]4(C)[C@H]3CC[C@]12C ? 137 to 138 °C

Any idea what melting point was measured for COc1cc2c(cc1OCC(=O)O)C1Cc3c(Cl)cc(OC)c(OCC(=O)O)c3CN1CC2 (stereo not given) ? 202 to 204 °C

Any idea what melting point was measured for CC(=O)Nc1ccccc1C(=O)N1CC2CC2(c2ccccc2)C1 (stereo not given) ? 124 to 127 °C

Any idea what melting point was measured for CC1CN(c2n[nH]c(-c3ccc(Cl)cc3)c2-c2ccncc2)CCN1 (stereo not given) ? 235 to 237 °C

====

assay.readout: melting point

Any idea what melting point was measured for CNC(=S)C1=CC2(CCOCC2)Oc2ccc([N+](=O)[O-])cc21 ? 223 to 225 °C

Any idea what melting point was measured for CC(C)(C)c1cc(SCCc2n[nH]c(=S)o2)cc(C(C)(C)C)c1O ? 124 °C

Any idea what melting point was measured for CCCn1cc2c(C3C(=O)Nc4ccc(Br)cc43)nc(NCC3CCCO3)nc2n1 (centres undefined) ? 309 to 312 °C

Any idea what melting point was measured for O=c1[nH]c2cc(-n3cnc4ccccc43)c([N+](=O)[O-])cc2[nH]c1=O ? > 300 °C

Any idea what melting point was measured for CC(C)(C)c1ccc(CCCCC(O)C2CCCCC2)cc1NC(=O)CC1c2ccccc2Oc2ccccc21 (centres undefined) ? 147 to 148 °C

Any idea what melting point was measured for Cn1c(Cc2cccc(C(F)(F)F)c2)nc2c(-c3cccc(C(=O)NCCO)c3)cccc21 ? 147 to 148 °C

Any idea what melting point was measured for O=C(OC(c1ccccc1)c1ccccc1)C(=C(CBr)N1CCOCC1)N1C(=O)C2N=C(Cc3ccccc3)SC21 (centres undefined) ? 93 to 96 °C

Any idea what melting point was measured for COc1ccc(CC(=O)O)cc1OCCCc1cn(-c2ccc(C(F)(F)F)cn2)nc1C(C)C ? 122 to 123 °C

Any idea what melting point was measured for O=S(c1ccccc1-c1ccccc1)C(F)(F)F (centres undefined) ? 57 to 58 °C

====

assay.readout: melting point

Any idea what melting point was measured for CS(=O)(=O)c1ccc(-c2cnn(Cc3ccccc3C(F)(F)F)c(=O)c2-c2ccc(F)cc2)cc1 ? 87 to 90 °C

Any idea what melting point was measured for O=C1c2ccc([N+](=O)[O-])cc2C(=O)N1C1CCN(CCc2ccccc2)CC1 ? 240 to 242 °C

Any idea what melting point was measured for O=C1c2ccccc2-c2c1c1ccccc1c(=O)n2CCCCCCCNS(=O)(=O)c1ccc(Br)cc1 ? 160 to 161 °C

Any idea what melting point was measured for N#Cc1c(N2CCN(C(=O)c3cccs3)CC2)c2cccnc2[nH]c1=O ? 320 °C

Any idea what melting point was measured for O=C(OCc1ccccc1)N1CCC2(CC1)CC(=O)N(O)C2=O ? 131 to 132 °C

Any idea what melting point was measured for COCc1ccc(OCC(=O)O)c(NC(=O)c2ccc(OCCCCc3ccccc3)cc2)c1 ? 126 to 129 °C

Any idea what melting point was measured for CCC1(O)CC(=O)OCc2c1cc1n(c2=O)Cc2cc3c4c(c(F)cc3nc2-1)OCN(Cc1ccccc1)C4 (centres undefined) ? > 250 °C

Any idea what melting point was measured for COc1c(C=O)ccc2c1oc1ccccc12 ? 178 to 180 °C

Any idea what melting point was measured for Nc1ccc(C(O)(Cc2ccccc2)c2ccccc2)cc1 (centres undefined) ? 105 to 107 °C

====

assay.readout: melting point

Any idea what melting point was measured for C#CCOc1ccc2c(c1)c(-c1ccc(C(C)C)cc1)nc(=O)n2Cc1cccc([N+](=O)[O-])c1 ? 167 to 168 °C

Any idea what melting point was measured for Cc1cc2c(cc1C(F)(F)F)NC(=O)CC(c1cccc(-c3ccnc(CN(C)CC(C)C)c3)c1)=N2 ? 188 °C

Any idea what melting point was measured for CCCc1nc(C#N)c(C#N)[nH]1 ? 141 to 144 °C

Any idea what melting point was measured for CSCC[C@H](NC(=O)OCc1ccccc1)C(=O)[C@@H](C(N)c1ccccc1)[C@H](O)C(=O)N1C[C@@H](Cl)C[C@H]1C(=O)NC(C)(C)C (stereo not given in full) ? 81 to 88 °C

Any idea what melting point was measured for NC(=O)NCCCCCC1CCSS1 (stereo not given) ? 74 to 78 °C

Any idea what melting point was measured for CCCCC(=O)Nc1c(C(=O)c2cccc(C)c2)[nH]c2cc(Cl)ccc12 ? 124 to 126 °C

Any idea what melting point was measured for COCCNC(=O)c1cccc(-c2cccc3cc(Cc4cccc(Cl)c4)sc23)c1 ? 120 to 134 °C

Any idea what melting point was measured for CS(=O)(=O)c1ccc(C(=O)c2cc(-c3ccccc3)c(N3CCOCC3)s2)cc1 ? 175 °C

Any idea what melting point was measured for O=C1NCC[C@@H]1NCc1ccc(OCc2cccc(F)c2)cc1 ? 140 to 144 °C

Any idea what melting point was measured for CN(C)CCCC(N)=S ? 77 °C

Any idea what melting point was measured for CC1(C)C2C(=O)OC(C(Br)(Br)Br)C21 (stereo not given) ? 101 to 103 °C

Any idea what melting point was measured for O=c1c2cnc3ccc(C(F)(F)F)cc3c2on1-c1ccccc1 ? 175 °C

Any idea what melting point was measured for CC(C)c1cc(S(N)(=O)=O)c(C(C)C)cc1C(=O)O ? 225 to 231 °C

Any idea what melting point was measured for COC(=O)CCCCCCCCN1C(=O)C(c2ccccc2)N(c2ccccc2)C1=O (stereo not given) ? 69 to 72 °C

Any idea what melting point was measured for CCc1ccccc1C(Cc1ccccc1NC(=O)C(C)(C)C)NC (stereo not given) ? 80 to 81.5 °C

Any idea what melting point was measured for Cc1cc(C)nc(C(=O)c2[nH]c3ccc(Cl)cc3c2CC(=O)O)c1 ? 233 to 235 °C

Any idea what melting point was measured for C(#Cc1cccs1)C1=CCN(Cc2c[nH]c3ncccc23)CC1 ? 191 to 193 °C

Any idea what melting point was measured for Cc1ccc(S(=O)(=O)n2c(-c3cn(C)c4ccc(-c5ccncc5)cc34)cc3cccnc32)cc1 ? 82 to 85 °C

Any idea what melting point was measured for CC(=O)C(C(=O)NS(=O)(=O)c1ccc(C)cc1)C(=O)c1ccccc1 (stereo not given) ? 114 to 116 °C

Any idea what melting point was measured for O=C1OC(c2ccccc2)N=C1CCCCNC(=O)c1ccccc1 (stereo not given) ? 118 to 122 °C

Any idea what melting point was measured for CNc1cccc(S(=O)(=O)NC(=O)Nc2nc(OC)cc(OC)n2)n1 ? 166 to 168 °C

Any idea what melting point was measured for CCCC(=O)c1cnc2c(OC)cccc2c1Nc1ccc(OC(C)=O)cc1C ? 167 to 169 °C

Any idea what melting point was measured for CCN(CC)CC1CCCCN1CCCCN1c2ccccc2C(=O)Nc2cccnc21 (stereo not given) ? 112 °C

Any idea what melting point was measured for CCOP(=O)(/C=C/c1cn(-c2ccccc2)nc1OCc1ccc(OCc2nc(-c3ccco3)oc2C)cc1)OCC ? 131 to 132 °C

Any idea what melting point was measured for CC(C)(C)OC(=O)N1CCC(c2c(F)cc(N3C[C@H](CN=[N+]=[N-])OC3=O)cc2F)CC1 ? 125 to 127 °C

Any idea what melting point was measured for CCOC(=O)c1ccc(NCCCCCCCCc2ccccc2)cc1 ? 61 to 68 °C

Any idea what melting point was measured for Fc1cc(CC2(Cc3ccnc(F)c3)c3ccccc3-c3cccnc32)ccn1 ? 128 to 130 °C

Any idea what melting point was measured for N#Cc1c[nH]c(C(F)(F)F)c1-c1ccc(Cl)cc1 ? 114 to 115 °C

Any idea what melting point was measured for COC(=O)c1nc(-c2ccc([Si](C)(C)C)c(F)c2F)c(F)c(N)c1OC ? 123 to 125 °C

Any idea what melting point was measured for COc1ccc(Cn2cc(OCc3ccccc3)c(=O)cc2C(=O)NCCNCc2ccccc2)cc1 ? 112 °C

Any idea what melting point was measured for N#CN=CNC1c2ccccc2CC2CCCCC21 (stereo not given) ? 145 to 165 °C

Any idea what melting point was measured for Cc1cccc2ncc3nnnn3c12 ? 166 to 168 °C

Any idea what melting point was measured for CCCc1c(C(=O)C(C)C)c2ccc(C(N)=O)cc2n1Cc1c(Cl)cccc1Cl ? 208 to 209 °C

Any idea what melting point was measured for CCCCCCCCCCOc1cnc(-c2ccc(C(C)O)cc2)nc1 (single isomer, unassigned; (+)) ? 65 to 66 °C

Any idea what melting point was measured for O=C1Nc2c(cc([N+](=O)[O-])cc2[N+](=O)[O-])C1c1ncnc2nn(C3CCCC3)cc12 (stereo not given) ? > 300 °C

Any idea what melting point was measured for Cc1csc2c(Cl)c(Cl)c(O)cc12 ? 137 to 139 °C

Any idea what melting point was measured for Oc1ccc(-c2nn(-c3cc(Cl)ccc3Cl)c3cc(O)ccc23)c(O)c1 ? 78 to 80 °C

Any idea what melting point was measured for CN1C(=O)C(C)(C)N=C(c2ccccc2F)c2cc(N)cc(Cl)c21 ? 169 to 172 °C

Any idea what melting point was measured for C=C1CCCCCCC(C(=O)OCC)NC1=O (stereo not given) ? 91 to 92 °C

Any idea what melting point was measured for CC1CCN(c2ccnc(NC(=O)NCc3ccccn3)c2)C1=O (stereo not given) ? 190 to 191 °C
